# System tested: Solute carrier family 15 member 1 (Homo sapiens, UniProt P46059)
# Sequence (P46059 whole entry): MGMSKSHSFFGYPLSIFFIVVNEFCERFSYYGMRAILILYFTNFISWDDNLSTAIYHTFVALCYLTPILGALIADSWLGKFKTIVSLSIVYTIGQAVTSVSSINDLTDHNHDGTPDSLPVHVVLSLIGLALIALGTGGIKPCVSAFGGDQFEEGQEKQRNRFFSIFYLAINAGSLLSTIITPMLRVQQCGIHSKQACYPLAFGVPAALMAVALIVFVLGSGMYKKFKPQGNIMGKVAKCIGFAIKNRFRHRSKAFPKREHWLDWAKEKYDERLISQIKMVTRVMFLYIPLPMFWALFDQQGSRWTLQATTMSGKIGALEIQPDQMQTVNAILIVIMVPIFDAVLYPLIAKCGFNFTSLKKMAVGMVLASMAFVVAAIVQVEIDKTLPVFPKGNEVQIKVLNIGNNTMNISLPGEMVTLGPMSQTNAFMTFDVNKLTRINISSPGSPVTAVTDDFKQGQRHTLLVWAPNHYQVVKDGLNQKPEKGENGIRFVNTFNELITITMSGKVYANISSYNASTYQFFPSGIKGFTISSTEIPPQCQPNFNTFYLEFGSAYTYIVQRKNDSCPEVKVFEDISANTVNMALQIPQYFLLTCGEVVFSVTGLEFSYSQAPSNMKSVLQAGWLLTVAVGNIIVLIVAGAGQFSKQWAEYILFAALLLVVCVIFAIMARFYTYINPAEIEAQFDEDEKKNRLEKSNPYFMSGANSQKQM
# Experimental protocol: Binding affinity against membrane transport protein PEPT1 in human Caco-2 cells
# Format: cell-based
Non-standard residues stand in square brackets, D forms with d. Residues, ends and D or L forms follow the SMILES beside them. *: point of attachment. Bn = c1ccc(C*)cc1
Quantity kind: pKi
Bear in mind: pKi is minus log10 of a mol/L concentration; give just that figure.

Example results:
[[record]]
compound = "N[C@@H](CCC(=O)O)C(=O)N[C@@H](Cc1ccccc1)C(=O)N[C@@H](Cc1ccc(O)cc1)C(=O)O (H-Glu-Phe-Tyr-OH)"
assay_value = 3.70

[[record]]
compound = "C[C@H](N)C(=O)N[C@@H](C)C(=O)O (stereo in doubt; 110)"
assay_value = 3.85

[[record]]
compound = "C[C@H](N)C(=O)N1CCCC1C(=O)O (single isomer, unassigned)"
assay_value = 1.82

[[record]]
compound = "CSCC[C@H](NC(=O)[C@H](CCSC)NC(=O)[C@@H](N)CCSC)C(=O)O (stereo in doubt; 10)"
assay_value = 4.00

[[record]]
compound = "N[C@@H](Cc1c[nH]c2ccccc12)C(=O)NCC(=O)N[C@@H](Cc1ccc(O)cc1)C(=O)O"
assay_value = 3.62

[[record]]
compound = "CC(C)C[C@H](NC(=O)[C@H](C)NC(=O)[C@@H](N)C(C)C)C(=O)O (H-Val-Ala-Leu-OH)"
assay_value = 3.85


So what does the record say about pKi for C[C@H](NC(=O)[C@@H](N)COCc1ccccc1)C(=O)O (H-Ser(Bn)-Ala-OH) ? 4.05

Given the entry CC(C)[C@H](NC(=O)[C@H](N)Cc1ccc(O)cc1)C(=O)NCC(=O)O (H-[dY]-Val-Gly-OH) , report its measured pKi. 1.85

Which value of pKi has been reported for NCCCC[C@H](NC(=O)[C@@H](N)CCC(=O)O)C(=O)O (H-Glu-Lys-OH) in the records? 3.29

Could you share which pKi value was measured for NCC(=O)N[C@@H](Cc1c[nH]cn1)C(=O)O (H-Gly-His-OH) ? 2.39

Consider the compound C[C@H](N)C(=O)N[C@@H](C)C(=O)N[C@H](C)C(=O)O and give its measured pKi. 2.08
